Origin of measurements: PubChem BioAssay (NCI)

assay: NCI Yeast Anticancer Drug Screen. Data for the cln2 rad14 strain (AID 165);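 note: 0% = growth equal to vehicle treated cultures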; details: S. cerevisiae cln2 rad14 strain, at 50.0 µM, stronger effect = higher value
This is part of a sample that, as a whole, favours compounds with a hit. Of some 79,000 tested, about 15% had one in any assay.
Hi, to clarify the labels: 1 covers growth inhibition from 90% upward, -1 covers anything below 90%.

N#Cc1c(-c2ccc(Cl)cc2)c(-c2ccc(Cl)cc2)nn(CCOC(=O)CCC(=O)O)c1=O : -1

Quick check, growth inhibition >= 90%? `CC/C(=C(\CC)c1ccc(O)c(CN(C)C)c1)c1ccc(OC)cc1` 1

Has `COc1ccccc1OC(=O)Oc1ccccc1OC` a recorded growth inhibition greater than or equal to 90%? -1

Has `O=C(O)CCCCC1CCCCC1.[Cu+2]` a recorded growth inhibition greater than or equal to 90%? -1

---

assay: NCI Yeast Anticancer Drug Screen. Data for the rad50 strain (AID 155);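 note: 0% = growth of vehicle-only cultures of the same strain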; conditions: S. cerevisiae rad50 strain growth inhibition; at 50.0 µM (retest, dose inferred, filed as 5.0); stronger effect = higher value
This is part of a sample that, as a whole, favours compounds with a hit. Of some 79,000 tested, about 15% had one in any assay.
Listed below: growth inhibition values for each entry.
Provide only the numeric value, understood in %.

Sample records with growth inhibition:
N#CSCC(=O)c1ccc(Cl)cc1 : 61
O=C(Nc1ccccc1-c1nn(C(=S)Nc2ccccc2)c(=S)n(C(=S)Nc2ccccc2)c1=O)C(F)(F)F : 59

Recorded growth inhibition for COc1cccc2c1C(=O)c1c(O)c(COC3CC(N)C(O)C(C)O3)cc(O)c1C2=O (centres undefined) , please? 89

Requested field: growth inhibition. Item: CC(C(=O)O)c1cn(Cc2ccccc2)c2ccccc12 (centres undefined) 61

---

experiment: NCI Yeast Anticancer Drug Screen. Data for the rad50 strain (AID 155);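 note: 0% = growth of vehicle-only cultures of the same strain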; conditions: S. cerevisiae rad50 strain growth inhibition; at 5.0 µM (retest, dose inferred, filed as 0.5)
About 79,000 compounds went through this panel and 15% of them were active in at least one assay; those are over-represented in the sample as a whole. Calls of active or inactive are those of the source. Rule as the data show it: active = growth inhibition above about 70%; inactive = the rest.
Please answer using one outcome listed in active, inactive

Solved entries (count: 2):
O=C(O)C(Br)C(Br)c1ccccc1[N+](=O)[O-] (configuration not stated) : inactive
Cc1ccc(S(=O)(=O)Nc2ccccc2Cl)cc1 : inactive

Hi, sorry to bother you, what did the test record for `COC(=O)c1cc(C)c2sc3ccccc3c2c1C` ? inactive

---

test: NCI Yeast Anticancer Drug Screen. Data for the rad50 strain (AID 155);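 note: 0% = growth of vehicle-only cultures of the same strain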; settings: S. cerevisiae rad50 strain growth inhibition; at 5.0 µM (retest, dose inferred, filed as 0.5); stronger effect = higher value
This is part of a sample that, as a whole, favours compounds with a hit. Of some 79,000 tested, about 15% had one in any assay.
observable: growth inhibition (%)
Value expressed in %; do not type the unit.

Examples from the recorded data:
O=C(/C=C/C(=O)OCCCl)OCCCl : 5
COC(=O)C12CCC(=O)C(C)=C1CCC(OC)(OC)C2 (configuration not stated) : -5
CC(C)(C)C(=O)CC(=O)C(F)(F)C(F)(F)C(F)(F)F.CC(C)(C)C(=O)CC(=O)C(F)(F)C(F)(F)C(F)(F)F.CC(C)(C)C(=O)CC(=O)C(F)(F)C(F)(F)C(F)(F)F.[Fe] : 21
CCCCCCC(C)c1ccccc1O (configuration not stated) (tested in a mixture with another compound) : 25
CC[N+]1(C)CCC(O)(/C=C/c2ccccc2)C(C(=O)/C=C/c2ccccc2)C1 (configuration not stated) : 7
O=C1C2=Cc3ccccc3CCN2c2ccccc21 : 4
O=C(CCN(Cc1ccccc1)Cc1ccccc1)c1ccc2ccccc2c1 : 30
O=NN(CCCl)C(=O)Oc1cc(Cl)c(Cl)cc1Cl : 71
N#Cc1c(-c2ccc(Cl)cc2)c(-c2ccc(Cl)cc2)nn(CCOC(=O)CCC(=O)O)c1=O : 8
CNC(=O)OC(C)CN1c2ccccc2Sc2ccccc21 (configuration not stated) : -10

Would you mind telling me what growth inhibition value was observed for COc1ccc(C(SCC(N)C(=O)O)(c2ccc(OC)cc2)c2ccc(OC)cc2)cc1 (configuration not stated) ? -11

Fill in the blank: the reported growth inhibition of `CCOC(=O)/C=C(\C)OCC` is ____. -5

// lookup growth inhibition for `CC(C)(C)CC(C)(C)c1ccc(OCCSC(=N)N)cc1` 95

---

Reported growth inhibition by item:
experiment: NCI Yeast Anticancer Drug Screen. Data for the rad50 strain (AID 155);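 note: 0% = growth of vehicle-only cultures of the same strain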; settings: S. cerevisiae rad50 strain growth inhibition; at 5.0 µM (retest, dose inferred, filed as 0.5); stronger effect = higher value
This is part of a sample that, as a whole, favours compounds with a hit. Of some 79,000 tested, about 15% had one in any assay.
Record the value in %, omitting the unit from your answer.

CCOC(=O)C(=O)Nc1ccc(Cl)cc1Cl : -12
COc1ccc(C2CC(CO)ON2c2ccccc2)cc1 (centres undefined) : -17
N#CC1=CN=C2C=CC=C3N=C(C(Cl)(Cl)Cl)N=C1N32 : 19

Query: growth inhibition; subject: CSC(=S)NNC(C)c1nccc2ccccc12 (centres undefined) 23

---

assay: NCI Yeast Anticancer Drug Screen. Data for the rad50 strain (AID 155);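 note: 0% = growth of vehicle-only cultures of the same strain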; settings: S. cerevisiae rad50 strain growth inhibition; at 50.0 µM; stronger effect = higher value
This is part of a sample that, as a whole, favours compounds with a hit. Of some 79,000 tested, about 15% had one in any assay.
Note to self: values exactly at 90% are 1. So growth inhibition at or above 90% is 1, below is 0.

COC(=O)c1[nH]c(=O)c(C#N)c(C(=O)OC)c1C(=O)c1ccc(Cl)c(Cl)c1 : 1
O=C(O)C(O)C(O)C(O)C(O)c1nc2ccccc2s1 (centres undefined) : 1
Cc1ccc2c(c1)CC1(C2)Cc2ccc(C)cc2C1=O (centres undefined) : 0
N#CC(C#N)C(C#N)c1ccc(Cl)c(Cl)c1 (centres undefined) : 1

Hello, I need to know if `c1ccc(N/N=C(/CC/C(=N\Nc2ccccc2)c2ccccc2)c2ccccc2)cc1` has measured growth inhibition not below 90%. Thanks! 1

Assess whether reported growth inhibition for CS(=O)(=O)OC1COC2C(I)COC12 (centres undefined) sits at 90% or higher. 0

---

assay: NCI Yeast Anticancer Drug Screen. Data for the cln2 rad14 strain (AID 165);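 note: 0% = growth equal to vehicle treated cultures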; settings: S. cerevisiae cln2 rad14 strain, at 5.0 µM (retest, dose inferred, filed as 0.5)
About 79,000 compounds went through this panel and 15% of them were active in at least one assay; those are over-represented in the sample as a whole. Active and inactive are the calls of the source. No stated cut-off is given here; in the data, active means growth inhibition above about 70%; inactive means the rest.
Respond only with the outcome that fits, drawn from active, inactive

C#CC(C)(C)Nc1c2ccccc2nc2ccccc12 : inactive
CCCCC(=O)N/N=C/c1ccc([N+](=O)[O-])s1 : inactive
O=S(=O)(O)N=Nc1ccc(O)cc1 : inactive
Oc1cc2ccccc2c2ccccc12 : inactive

For this compound, state the assay outcome: `Cc1ccc(-c2c3c(cc4cc(C)ccc24)C(=O)OC3=O)cc1` inactive

Which outcome was entered for the compound `COC(=O)c1n[nH]c(C)c1N=NN1CCC(C(N)=O)CC1` in this test? inactive

Answer briefly: the call reported for `Cc1cc(Cl)c2c(c1)C(=N/O)/C(=C\c1ccco1)O2` in this assay. active

Answer briefly: the call reported for O=C1C=CC(=Nc2cc3c(cc2Br)-c2ccccc2C3Br)O1 (configuration not stated) in this assay. inactive

For this compound, state the assay outcome: CCCCCCC(C)c1ccccc1O (configuration not stated) (tested in a mixture with another compound) inactive

Returns: the outcome recorded for `CC(C)(CCBr)[N+](=O)[O-]` in this assay. inactive

Could you kindly confirm the outcome this assay logged for `Clc1ccc2oc(N3CCCCC3)nc2c1` ? inactive

Which result was noted for this compound in the test: `CCCCNCCCCCCCCCCCl` inactive

---

experiment: NCI Yeast Anticancer Drug Screen. Data for the mlh1 rad18 strain (AID 175); conditions: S. cerevisiae mlh1 rad18 strain growth inhibition; at 50.0 µM (retest, dose inferred, filed as 5.0)
This is part of a sample that, as a whole, favours compounds with a hit. Of some 79,000 tested, about 15% had one in any assay. Activity calls are given as the source filed them. No stated cut-off is given here; in the data, active means growth inhibition above about 70%; inactive means the rest.
Lab note: assign the record to one of active, inactive

O=[N+]([O-])/C(C(Cl)=C(Cl)Cl)=C(/Nc1ccccc1)Sc1ccccc1 : active

Give the logged outcome of this assay for the following molecule: `Cc1c(N)cccc1[N+](=O)[O-]` inactive

Lab log entry: `O=c1c(NO)c([N+](=O)[O-])cnn1-c1ccccc1` — outcome as called in the assay? inactive

Which outcome was entered for the molecule `C[C@@]12C(=O)OC(=O)[C@]1(C)[C@H]1CC[C@@H]2O1` in this test? active

---

Item-by-item account of growth inhibition
assay: NCI Yeast Anticancer Drug Screen. Data for the mlh1 rad18 strain (AID 175); settings: S. cerevisiae mlh1 rad18 strain growth inhibition; at 5.0 µM (retest, dose inferred, filed as 0.5); stronger effect = higher value
About 79,000 compounds went through this panel and 15% of them were active in at least one assay; those are over-represented in the sample as a whole.
Express your answer in %, writing the number without its unit.

NC(CCC(=O)NC(CS(=O)(=O)O)C(=O)O)C(=O)O (stereo not drawn) : -3
CSC(=S)NN=C1CCCCC1 : 55
CC#CS(=O)(=O)c1ccccc1 : 36

Proceeding to the next compound to report its growth inhibition.
# get_value(readout='growth inhibition', item= `CCCCCCCCCCCCCC(=O)N1CCOCC1` ) 7
